The measured values listed here are drawn from patent US20120115877A1.

System: UACC-257
Experiment Summary: NCI-60 screen, Melanoma
Type: cell-based, human
Details: 10 μM
Each item that follows carries a reported Percent Growth.
Note: unit % is implicit; provide only the numeric part.

Entry NCCCc1cccc(-c2ccc3oc4ccc(-c5cccc(CCCN)c5)cc4c3c2)c1 has what Percent Growth? 44.84

Entry NCCCc1cccc(-c2ccc3sc4ccc(-c5cccc(CCCN)c5)cc4c3c2)c1 has what Percent Growth? 100

---

Each item that follows carries a reported Percent Growth.
System: TK-10
Experiment Summary: NCI-60 screen, Renal Cancer
Assay type: cell-based, human
Details: 10 μM
Note: unit % is implicit; provide only the numeric part.

NCCc1cc(Br)cc(C#Cc2cccc(C#Cc3cc(Br)cc(CCN)c3)c2)c1 [Compound A] : 8.048
N=C(N)NCCCCC(=O)Nc1cc(C(F)(F)F)cc(NC(=O)Nc2ccc(NC(=O)Nc3cc(C(F)(F)F)cc(NC(=O)CCCCNC(=N)N)c3OC3CCNC3)cc2)c1OC1CCNC1 (stereo not drawn) [Compound B] : 60.45

Entry NCCCc1cccc(-c2ccc3sc4ccc(-c5cccc(CCCN)c5)cc4c3c2)c1 [Compound D] has what Percent Growth? 86.48

---

Tested on: SN12C
Experiment Summary: NCI-60 screen, Renal Cancer
Format: cell-based, human
Details: 10 μM
Experimental Readout: Percent Growth (%)
Note: unit % is implicit; provide only the numeric part.

Entry N=C(N)NCCCCC(=O)Nc1cc(C(F)(F)F)cc(NC(=O)Nc2ccc(NC(=O)Nc3cc(C(F)(F)F)cc(NC(=O)CCCCNC(=N)N)c3OC3CCNC3)cc2)c1OC1CCNC1 (stereo not shown) has what Percent Growth? 64.8

Entry NCCCc1cccc(-c2ccc3oc4ccc(-c5cccc(CCCN)c5)cc4c3c2)c1 has what Percent Growth? 82.22

---

System: SNB-19
Experiment Summary: NCI-60 screen, CNS Cancer
Assay type: cell-based, human
Details: 10 μM
Each item that follows carries a reported Percent Growth.
Note: unit % is implicit; provide only the numeric part.

// worked examples, Percent Growth included
NCCc1cc(Br)cc(C#Cc2cccc(C#Cc3cc(Br)cc(CCN)c3)c2)c1 : 27.06
N=C(N)NCCCCC(=O)Nc1cc(C(F)(F)F)cc(NC(=O)Nc2ccc(NC(=O)Nc3cc(C(F)(F)F)cc(NC(=O)CCCCNC(=N)N)c3OC3CCNC3)cc2)c1OC1CCNC1 (stereo not shown) : 49.16
NCCCc1cccc(-c2ccc3sc4ccc(-c5cccc(CCCN)c5)cc4c3c2)c1 : 79.89
N=C(N)NCCCCC(=O)Nc1cc(C(F)(F)F)cc(NC(=O)c2cc(C(=O)Nc3cc(C(F)(F)F)cc(NC(=O)CCCCNC(=N)N)c3SCCN)ncn2)c1SCCN : 47.25

Record NCCSc1cc(SCCN)c(C(F)(F)F)cc1NC(=O)c1cc(C(=O)Nc2cc(C(F)(F)F)c(SCCN)cc2SCCN)ncn1 : what is its Percent Growth with SNB-19? 49.54

Record NCCCc1cccc(-c2ccc3oc4ccc(-c5cccc(CCCN)c5)cc4c3c2)c1 : what is its Percent Growth with SNB-19? 88.57

Record c1cc(-c2ccc3sc4ccc(-c5ccnc(N6CCNCC6)c5)cc4c3c2)cc(N2CCNCC2)n1 : what is its Percent Growth with SNB-19? −43.97

---

Tested on: DU-145
Experiment Summary: NCI-60 screen, Prostate Cancer
Type: cell-based, human
Details: 10 μM
Experimental Readout: Percent Growth
Returns: string containing the numeric result and its unit.

Entry NCCCc1cccc(-c2ccc3oc4ccc(-c5cccc(CCCN)c5)cc4c3c2)c1 has what Percent Growth? −23.65%

Entry NCCSc1cc(SCCN)c(C(F)(F)F)cc1NC(=O)c1cc(C(=O)Nc2cc(C(F)(F)F)c(SCCN)cc2SCCN)ncn1 has what Percent Growth? 51.97%

Entry NCCc1cc(Br)cc(C#Cc2cccc(C#Cc3cc(Br)cc(CCN)c3)c2)c1 has what Percent Growth? −83.92%

Entry N=C(N)NCCCCC(=O)Nc1cc(C(F)(F)F)cc(NC(=O)Nc2ccc(NC(=O)Nc3cc(C(F)(F)F)cc(NC(=O)CCCCNC(=N)N)c3OC3CCNC3)cc2)c1OC1CCNC1 (stereo not shown) has what Percent Growth? 70.36%

Entry NCCCc1cccc(-c2ccc3sc4ccc(-c5cccc(CCCN)c5)cc4c3c2)c1 has what Percent Growth? 55.35%

Entry N=C(N)NCCCCC(=O)Nc1cc(C(F)(F)F)cc(NC(=O)c2cc(C(=O)Nc3cc(C(F)(F)F)cc(NC(=O)CCCCNC(=N)N)c3SCCN)ncn2)c1SCCN has what Percent Growth? 62.89%

Entry c1cc(-c2ccc3sc4ccc(-c5ccnc(N6CCNCC6)c5)cc4c3c2)cc(N2CCNCC2)n1 has what Percent Growth? −97.96%

---

Tested on: UACC-257
Experiment Summary: NCI-60 screen, Melanoma
Format: cell-based, human
Details: 10 μM
Protocol: Several compounds were tested at single concentrations (10 μM) against 59 different human tumor cell lines, representing leukemia, melanoma and cancers of the lung, colon, brain, ovary, breast, prostate, and kidney (see, Table 3). […] Following drug addition, the plates were incubated for an additional 48 hours at 37° C., 5% CO2, 95% air, and 100% relative humidity. […] Percentage growth inhibition was calculated as: […] Three dose response parameters were calculated for each compound. […]
Hi! Could you tag entries with Percent Growth below 60% as Satisfied, and those at or above as Not satisfied? Much appreciated.

N=C(N)NCCCCC(=O)Nc1cc(C(F)(F)F)cc(NC(=O)Nc2ccc(NC(=O)Nc3cc(C(F)(F)F)cc(NC(=O)CCCCNC(=N)N)c3OC3CCNC3)cc2)c1OC1CCNC1 (centres unmarked) : Not satisfied

Record NCCSc1cc(SCCN)c(C(F)(F)F)cc1NC(=O)c1cc(C(=O)Nc2cc(C(F)(F)F)c(SCCN)cc2SCCN)ncn1 : is its Percent Growth strictly below 60%? Not satisfied

Record c1cc(-c2ccc3sc4ccc(-c5ccnc(N6CCNCC6)c5)cc4c3c2)cc(N2CCNCC2)n1 : is its Percent Growth strictly below 60%? Satisfied

Record NCCc1cc(Br)cc(C#Cc2cccc(C#Cc3cc(Br)cc(CCN)c3)c2)c1 : is its Percent Growth strictly below 60%? Not satisfied

---

Tested on: SN12C
Experiment Summary: NCI-60 screen, Renal Cancer
Assay type: cell-based, human
Details: 10 μM
Description: Several compounds were tested at single concentrations (10 μM) against 59 different human tumor cell lines, representing leukemia, melanoma and cancers of the lung, colon, brain, ovary, breast, prostate, and kidney (see, Table 3). […] Following drug addition, the plates were incubated for an additional 48 hours at 37° C., 5% CO2, 95% air, and 100% relative humidity. […] Percentage growth inhibition was calculated as: […] Three dose response parameters were calculated for each compound. […]
Each item that follows carries a reported Percent Growth.
Note: unit % is implicit; provide only the numeric part.

// worked examples, Percent Growth included
NCCCc1cccc(-c2ccc3sc4ccc(-c5cccc(CCCN)c5)cc4c3c2)c1 [Compound D] : 84.45
N=C(N)NCCCCC(=O)Nc1cc(C(F)(F)F)cc(NC(=O)c2cc(C(=O)Nc3cc(C(F)(F)F)cc(NC(=O)CCCCNC(=N)N)c3SCCN)ncn2)c1SCCN [Compound C] : 65.97
NCCSc1cc(SCCN)c(C(F)(F)F)cc1NC(=O)c1cc(C(=O)Nc2cc(C(F)(F)F)c(SCCN)cc2SCCN)ncn1 [Compound F] : 57.46
c1cc(-c2ccc3sc4ccc(-c5ccnc(N6CCNCC6)c5)cc4c3c2)cc(N2CCNCC2)n1 [Compound E] : −16.99

Now turn to the next compound.
Entry NCCc1cc(Br)cc(C#Cc2cccc(C#Cc3cc(Br)cc(CCN)c3)c2)c1 [Compound A] has what Percent Growth? 22.8
